Measured on: T1, QIEKLVEGASQIQ (not fully specified)
T1 construct: member of the group m41; the text speaks of glycine substitution, the sheet prints alanine
T1 peptide: QIEKLVEGASQIQ
Assay remarks: ELISA, immobilized peptide QIEKLVEGASQIQ
No end group written: not given here.
Measured OD450 absorbance, listed per entry for reference.

Ask | Which OD450 absorbance value belongs to MM07 (antibody, V domains shown, The VH and VL begin with what look like leader peptides (MDWLW..., MVSSAQ...)) VH: QIQLVQSGPELKKPGETVRISCKASGYTLTTAGMQWVQKIPGKGLKWIGWINTHSGVAEFAEDFKGRFAFSLETSANTAYLQIRNLKNEDTATYFCARLGLLGYWGQGTTLTVSS VL: DILLTQSPAILSVSPGERVSFSCRASQSIGTTIHWYQQRTNGSPRLLIKYASESISGIPSRFSGSGSGTDFTLSINSVESEDIADYYCQQSNSWPWTFGGGTKLEIKR ?
Reply | 0.79

Ask | Which OD450 absorbance value belongs to MM14 (antibody, IgG2b, V domains shown) VH: QVQLKESGPGLVAPSQSLSITCTVSGFSLTSYAVSWVRQPPGKGLEWLGIIWGDGSTNYHSALISRLSISKDNSKSQVFLKLNSLQTDDTATYYCAKQERFSDGYYDGFAYWGQGTLVTVSA VL: QIVLTQSPAIMSASPGEKVTITCSASSSVSYMHWFQQKPGTSPKLWIYSTSNLASGVPARFSGSGSGTSYSLTISRMEAEDAATYYCQQRSSYPFTFGSGTKLEIKR ?
Reply | 0.621

Ask | Which OD450 absorbance value belongs to MM02 (antibody, IgG2b, V domains shown) VH: QIQLVQSGPEVKKPGETVRISCKASGYTLTTAGIQWVQKMPGKGLKWIGWINTHSGVPEYAEDFKGRFAFFLETSASTAYLQISNLKNEDTATYFCARLGLLGYWGQGTTLTVSS VL: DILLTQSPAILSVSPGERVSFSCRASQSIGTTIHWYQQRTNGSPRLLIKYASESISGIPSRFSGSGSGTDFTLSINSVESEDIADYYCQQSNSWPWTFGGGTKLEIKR ?
Reply | 0.949

Ask | Which OD450 absorbance value belongs to MM08 (antibody, IgG1, V domains shown) VH: QVQLQQPGAELVRPGASVKLSCKSSDYTFTRYWMNWVKQRPGQGLEWIGMIDPSDSETHHNQMFKDKATLTVDKSSSTAYMQLSSLTSEDSAVYFCARYLGGKEGSFDYWGQGTTLTVSS VL: DIVLTQSPSSLAVSAGERVTMSCKSSQSLFNSRTRKNYLAWYQQKPGQSPKLLLYWASTRESGVPDRFTGSGSGTDFTLTISSVKTEDLAVYYCKQSYELPWTFGGGTKLEMKR ?
Reply | 0.939

Ref: patent US20230080534A1
